test system: Saccharomyces cerevisiae; assay: protein stability index of tFT-peptide fusion (C-terminal peptide) (PSI (0-1 scale)); higher = more stable (slower turnover); conditions: genetic background: cdc53-1; temperature: 37 C

Sequence Record: KTRQLINKITQM
protein stability index: 0.693
//
Sequence Record: PPPYPPPPARSL
protein stability index: 0.695
//
Sequence Record: YGAGDLTKYFIV
protein stability index: 0.684
//
Sequence Record: SRGGVFYVRIHS
protein stability index: 0.709

* * *

tested on: Saccharomyces cerevisiae; experiment: protein stability index of tFT-peptide fusion (C-terminal peptide) (PSI (0-1 scale)); higher = more stable (slower turnover); details: genetic background: wild type; temperature: 37 C;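 also: PSI is a weighted mean of sequencing reads over stability bins, variants kept only with over 10 reads, mCherry proximal and sfGFP distal, peptide attached via GGGS linker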
Could you label it Y if measured protein stability index is 0.4 or higher, and N otherwise?

Sequence Record: LDRLTTWTLIVR
Qualitative Label: Y
//
Sequence Record: LQYSKALAVICG
Qualitative Label: N
//
Sequence Record: GRLRLGVLCGGV
Qualitative Label: Y
//
Sequence Record: AKVFGLILVLLT
Qualitative Label: N
//
Sequence Record: GAVVYGICFCTN
Qualitative Label: Y
//
Sequence Record: KYCPCIPLLIAL
Qualitative Label: Y
//
Sequence Record: PPSPPLPPPSPF
Qualitative Label: Y
//
Sequence Record: ISVRKTFLIVLC
Qualitative Label: N
//
Sequence Record: GRVFSSFFLYIS
Qualitative Label: N
//
Sequence Record: YSALHNPPQPVT
Qualitative Label: Y
//
Sequence Record: LVLLRLSSLTIF
Qualitative Label: Y
//
Sequence Record: LWGVGRQRNIAS
Qualitative Label: Y
//
Sequence Record: HLYITGIIRKIT
Qualitative Label: N
//
Sequence Record: FFGVFIFPVSCR
Qualitative Label: N
//
Sequence Record: YLMVSKMSLRIG
Qualitative Label: Y
//
Sequence Record: VYFASCVVLLMV
Qualitative Label: N
//
Sequence Record: GYLVFTLRWLRG
Qualitative Label: Y
//
Sequence Record: FLFIFFFFLISF
Qualitative Label: N
//
Sequence Record: FLCWLSFIPLLS
Qualitative Label: N
//
Sequence Record: VWGLWRLCVWGV
Qualitative Label: Y
//
Sequence Record: RWPLVIRSLIVF
Qualitative Label: N
//
Sequence Record: GWMLVVWCGVFG
Qualitative Label: N
//
Sequence Record: SRVSEFVIPLGR
Qualitative Label: Y
//
Sequence Record: VGYSLFTFLFCA
Qualitative Label: Y
//
Sequence Record: CREFLQSMLFYC
Qualitative Label: Y
//
Sequence Record: RGGPPPCPLLAA
Qualitative Label: Y
//
Sequence Record: IFFFQFLWFCLS
Qualitative Label: N
//
Sequence Record: VVSVVVLVNSRG
Qualitative Label: Y
//
Sequence Record: LSPLPSPLILVV
Qualitative Label: N
//
Sequence Record: FGVECDLCLFCC
Qualitative Label: Y
//
Sequence Record: KKKTKYSKDKLC
Qualitative Label: Y
//
Sequence Record: YQFDGLVFLRLS
Qualitative Label: Y
//
Sequence Record: LCWRLCRFWWVG
Qualitative Label: Y
//
Sequence Record: IYLLLFFFSFSA
Qualitative Label: Y
//
Sequence Record: CCMLCVVAWSGV
Qualitative Label: Y
//
Sequence Record: CLLLFFIFLLFL
Qualitative Label: Y
//
Sequence Record: RPRVAGLMTLVS
Qualitative Label: Y
//
Sequence Record: RLVRILSTILLN
Qualitative Label: N
//
Sequence Record: CILVSVDVIVFF
Qualitative Label: N
//
Sequence Record: FFGVLFRVSLFF
Qualitative Label: N
//
Sequence Record: VVLVGVAVCRLG
Qualitative Label: Y
//
Sequence Record: RKKKRNKKKMIM
Qualitative Label: Y
//
Sequence Record: FFAFLRFFIFYW
Qualitative Label: Y
//
Sequence Record: PRPSPPLPPPSS
Qualitative Label: Y
//
Sequence Record: GTHWARLGWLLA
Qualitative Label: N
//
Sequence Record: VFCFCRFHFFCA
Qualitative Label: Y
//
Sequence Record: RIRRVMHLYTNN
Qualitative Label: N
//
Sequence Record: LHLTFRLAVLYY
Qualitative Label: N
//
Sequence Record: FLIFVVIGGVGL
Qualitative Label: Y
//
Sequence Record: LLLSLLVLRFFL
Qualitative Label: Y
//
Sequence Record: GCVLVFFLRLDL
Qualitative Label: Y
//
Sequence Record: VLVWLRLRVGLR
Qualitative Label: N
//
Sequence Record: VCLVFLFQFVLI
Qualitative Label: Y
//
Sequence Record: RPRRARLPNFLA
Qualitative Label: N
//
Sequence Record: TLCHLTLICVRE
Qualitative Label: N
